# Test system: HT-29
# MEASUREMENT_DESCRIPTION: Antiangiogenic activity in human HT-29 cells assessed as inhibition of VEGF mRNA expression at < IC50 after 48 hrs by RT-PCR analysis relative to control; values are per cent of control
Items are presented alongside their recorded level, % of control.
The reply should be a number in %, with the unit left off.

Field: example entries. Status: answers known.
COc1ccc(/C=C\c2cc(OC)c(OC)c(OC)c2)cc1O ... 91
COCOc1ccccc1/C=C/CCCOc1cc(/C=C\c2cc(OC)c(OC)c(OC)c2)ccc1OC ... 80
C/C=C/COc1cc(/C=C\c2cc(OC)c(OC)c(OC)c2)ccc1OC ... 69
COCOc1ccc(/C=C/CCCOc2cc(/C=C\c3cc(OC)c(OC)c(OC)c3)ccc2OC)cc1 ... 66
COc1ccc(/C=C\c2cc(OC)c(OC)c(OC)c2)cc1OCCC/C=C/c1ccc(Br)cc1 ... 73
COc1cccc(/C=C/CCCOc2cc(/C=C\c3cc(OC)c(OC)c(OC)c3)ccc2OC)c1 ... 97

Continue with the compound presented below.
Challenge: Report measured level, % of control on HT-29; entry: COCOc1cccc(/C=C/CCCOc2cc(/C=C\c3cc(OC)c(OC)c(OC)c3)ccc2OC)c1
Response given: 90

----------
# MEASUREMENT_DESCRIPTION: Selectivity ratio of IC50 for HEK293 cells to IC50 for human HT-29 cells
# Format: ADME, cell-based
# CONDITION_LABEL: HEK293 cells versus HT-29 cells, read-out: Ratio IC50
Please assign a class to every record based on measured selectivity ratio, with ranges class 0 = under 1, class 1 = from 1 up to 4, class 2 = 4 and over

Take a look at these entries with their results.
COc1cccc(/C=C/CCCOc2cc(/C=C\c3cc(OC)c(OC)c(OC)c3)ccc2OC)c1 ... class 1
C/C=C/COc1cc(/C=C\c2cc(OC)c(OC)c(OC)c2)ccc1OC ... class 0

Challenge: Hi, small favor: classify COCOc1cccc(/C=C/CCCOc2cc(/C=C\c3cc(OC)c(OC)c(OC)c3)ccc2OC)c1 by its selectivity ratio when you get a moment.
Response given: class 0

Challenge: # bin label for COc1ccccc1/C=C/CCCOc1cc(/C=C\c2cc(OC)c(OC)c(OC)c2)ccc1OC
Response given: class 2

----------
# Test system: HT-29
# MEASUREMENT_DESCRIPTION: Inhibition of c-myc mRNA expression in human HT-29 cells after 48 hrs by RT-PCR analysis relative to control
# Type: functional
Decide using inhibition (INH): a value greater than or equal to 60% is met, a smaller one is not met.

COc1ccc(/C=C\c2cc(OC)c(OC)c(OC)c2)cc1O [COMBRETASTATIN A4] ... met

Turning now to a further compound:
Challenge: Could you please find out whether COCOc1ccc(/C=C/CCCOc2cc(/C=C\c3cc(OC)c(OC)c(OC)c3)ccc2OC)cc1 has inhibition (INH) that meets 60% or exceeds it?
Response given: not met

----------
# MEASUREMENT_DESCRIPTION: Selectivity ratio of IC50 for HEK293 cells to IC50 for human MCF7 cells
# Type: ADME, cell-based
# CONDITION_LABEL: HEK293 cells versus MCF7 cells, read-out: Ratio IC50
Note: every record was labeled by where its selectivity ratio sits among lower segment (below 2), middle segment (2 to below 6), upper segment (6 or more)

COCOc1ccc(/C=C/CCCOc2cc(/C=C\c3cc(OC)c(OC)c(OC)c3)ccc2OC)cc1 ... lower segment
C/C=C/COc1cc(/C=C\c2cc(OC)c(OC)c(OC)c2)ccc1OC ... upper segment
COc1ccc(COc2cc(/C=C\c3cc(OC)c(OC)c(OC)c3)ccc2OC)cc1 ... lower segment
COc1ccc(/C=C\c2cc(OC)c(OC)c(OC)c2)cc1OCc1ccc(Br)cc1 ... lower segment
COc1ccc(/C=C\c2cc(OC)c(OC)c(OC)c2)cc1O [COMBRETASTATIN A4] ... upper segment
COc1ccc(/C=C\c2cc(OC)c(OC)c(OC)c2)cc1OCCC/C=C/c1ccc(Cl)cc1 ... middle segment
COc1cccc(/C=C/CCCOc2cc(/C=C\c3cc(OC)c(OC)c(OC)c3)ccc2OC)c1 ... lower segment
C=CCOc1cc(/C=C\c2cc(OC)c(OC)c(OC)c2)ccc1OC ... middle segment
COc1ccc(/C=C\c2cc(OC)c(OC)c(OC)c2)cc1OCc1ccccc1 ... lower segment
COc1ccc(/C=C/CCCOc2cc(/C=C\c3cc(OC)c(OC)c(OC)c3)ccc2OC)cc1 ... middle segment

Challenge: Could you tell me which band COCOc1ccccc1/C=C/CCCOc1cc(/C=C\c2cc(OC)c(OC)c(OC)c2)ccc1OC belongs to?
Response given: upper segment

Challenge: // bin(item) where item = COc1ccc(/C=C\c2cc(OC)c(OC)c(OC)c2)cc1OCCC/C=C/c1ccc(Br)cc1
Response given: lower segment

Challenge: Exam item: assign COCOc1cccc(/C=C/CCCOc2cc(/C=C\c3cc(OC)c(OC)c(OC)c3)ccc2OC)c1 to the correct category.
Response given: middle segment

Challenge: Which class does COc1ccc(/C=C\c2cc(OC)c(OC)c(OC)c2)cc1OCCC/C=C/c1ccc(F)cc1 fall in?
Response given: upper segment

Challenge: Please classify: COc1ccccc1/C=C/CCCOc1cc(/C=C\c2cc(OC)c(OC)c(OC)c2)ccc1OC
Response given: upper segment

Attribution: ChEMBL document CHEMBL3091460
